target: T1, human CD71 extracellular domain (human, UniProt P02786 89-760, biotinylated); assay: primary ELISA; also: test concentration or dose not given here
T1 construct: also called hCD71; CD71-ECD
T1 sequence (P02786 89-760): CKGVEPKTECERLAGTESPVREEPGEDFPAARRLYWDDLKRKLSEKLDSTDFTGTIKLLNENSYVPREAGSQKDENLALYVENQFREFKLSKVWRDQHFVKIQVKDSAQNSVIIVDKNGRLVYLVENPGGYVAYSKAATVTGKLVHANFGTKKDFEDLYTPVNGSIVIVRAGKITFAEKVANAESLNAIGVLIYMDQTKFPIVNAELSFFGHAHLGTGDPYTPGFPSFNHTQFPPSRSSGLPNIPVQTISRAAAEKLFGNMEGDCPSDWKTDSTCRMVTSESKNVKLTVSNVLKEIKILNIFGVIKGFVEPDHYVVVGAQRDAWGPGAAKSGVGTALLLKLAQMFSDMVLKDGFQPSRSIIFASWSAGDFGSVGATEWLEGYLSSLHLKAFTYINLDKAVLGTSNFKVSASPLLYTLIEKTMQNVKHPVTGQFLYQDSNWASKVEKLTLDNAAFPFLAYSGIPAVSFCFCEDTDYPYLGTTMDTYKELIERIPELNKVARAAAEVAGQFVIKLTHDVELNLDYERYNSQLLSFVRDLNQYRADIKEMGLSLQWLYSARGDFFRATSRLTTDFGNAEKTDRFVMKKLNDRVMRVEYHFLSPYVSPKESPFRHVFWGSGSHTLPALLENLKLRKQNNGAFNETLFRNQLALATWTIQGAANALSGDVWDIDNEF
Please go through the items and note down their RLU.

## Input Recorded RLU for CD71-binding FN3 domain of SEQ ID NO: 527 (designed binder) MLPAPKNLVVSRVTEDSARLSWTAPDAAFDSFFIGYLEPQPPGEAIHLYVPGSERSYDLTGLKPGTEYNVTIQGVKGGFPSEPLIANFTT , please?
## Output 6.59e+06 RLU

## Input Recorded RLU for CD71-binding FN3 domain of SEQ ID NO: 538 (designed binder) MLPAPKNLVVSRVTEDSARLSWTAPDAAFDSFFIGYLEPQPPGEAIDLYVPGSERSYDLTGLKPGTEYNVTIQGVKGGFPSHPLVAVFTT , please?
## Output 5.57e+06 RLU

Origin of measurements: patent US20260151494A1
